- METHOD_DESCRIPTION: Inhibition of Glycogen synthase kinase-3beta (GSK3-beta)
pIC50: −log10 of the molar value.
Decide by pIC50: equal to or exceeding 7 means t, less means f.

[[record]]
smi = "O=C1NC(=O)C2=C1c1cn(c3ncccc13)CCOCCOCCn1cc2c2cccnc21"
label_value = "f"

[[record]]
smi = "O=C1NC(=O)C2=C1c1cn(c3ncccc13)CCOCCOCCOCCOCCn1cc2c2cccnc21"
label_value = "t"

[[record]]
smi = "O=C1NC(=O)C2=C1c1cn(c3ccccc13)CCOCCOCCOCCOCCOCCn1cc2c2ccccc21"
label_value = "t"

[[record]]
smi = "O=C1NC(=O)C2=C1c1cn(c3ncccc13)CCOCCOCCOCCn1cc2c2cccnc21"
label_value = "t"

[[record]]
smi = "O=C1NC(=O)C2=C1c1cn(c3ccccc13)CCOCCOCCOCCOCCn1cc2c2ccccc21"
label_value = "t"

[[record]]
smi = "O=C1NC(=O)C2=C1c1cn(c3ncccc13)CCOCCOCCOCCOCCOCCn1cc2c2cccnc21"
label_value = "f"


Values from BindingDB's records for doi:10.1021/jm030115o
